Values from ChEMBL document CHEMBL4831528

Provide the recorded pIC50 for the entries that follow.
system: L02; experiment: Cytotoxicity against human L-02 cells incubated for 24 hrs by MTT assay; format: cell-based; conditions: L02, 24 h
pIC50: −log10 of the molar value.

# input Entry COc1cc(/C=C/c2ccc(OCC(=O)NC3CCN(C(=O)OC(C)(C)C)CC3)cc2)c(/C=C/[N+](=O)[O-])c(OC)c1 needs its pIC50 filled in; supply it.
# output < 4.00

# input Entry CCCCC(=O)Nc1ccc(/C=C/c2cc(OC)cc(OC)c2/C=C/[N+](=O)[O-])cc1 needs its pIC50 filled in; supply it.
# output < 4.00

# input Entry C=CCCCOc1ccc(/C=C/c2cc(OC)cc(OC)c2-c2cnn[nH]2)cc1 needs its pIC50 filled in; supply it.
# output < 4.00

# input Entry C/C=C/C(=O)Nc1ccc(/C=C/c2cc(OC)cc(OC)c2/C=C/[N+](=O)[O-])cc1 needs its pIC50 filled in; supply it.
# output < 4.00

# input Entry COc1cc(/C=C/c2ccc(NC(=O)COC(C)=O)cc2)c(/C=C/[N+](=O)[O-])c(OC)c1 needs its pIC50 filled in; supply it.
# output 4.23

# input Entry COc1cc(/C=C/c2ccc(N)cc2)c(/C=C/[N+](=O)[O-])c(OC)c1 needs its pIC50 filled in; supply it.
# output 4.07

# input Entry COc1cc(/C=C/c2ccc(OCC(=O)Nc3ccc(Cl)cc3)cc2)c(/C=C/[N+](=O)[O-])c(OC)c1 needs its pIC50 filled in; supply it.
# output < 4.00

# input Entry COc1cc(/C=C/c2ccc(NC(=O)CCCl)cc2)c(/C=C/[N+](=O)[O-])c(OC)c1 needs its pIC50 filled in; supply it.
# output < 4.00

# input Entry C=CC(=O)Nc1ccc(/C=C/c2cc(OC)cc(OC)c2/C=C/[N+](=O)[O-])cc1 needs its pIC50 filled in; supply it.
# output < 4.00

# input Entry COc1cc(/C=C/c2ccc(NC(=O)C3CCC3)cc2)c(/C=C/[N+](=O)[O-])c(OC)c1 needs its pIC50 filled in; supply it.
# output < 4.00

# input Entry O=[N+]([O-])/C=C/c1ccc2c(c1)OCO2 needs its pIC50 filled in; supply it.
# output 4.39

# input Entry COCCOc1ccc(/C=C/c2cc(OC)cc(OC)c2/C=C/[N+](=O)[O-])cc1 needs its pIC50 filled in; supply it.
# output < 4.00

# input Entry C=CCCCOc1ccc(/C=C/c2cc(OC)cc(OC)c2/C=C/[N+](=O)[O-])cc1 needs its pIC50 filled in; supply it.
# output < 4.00

# input Entry COc1cc(/C=C/c2ccc(OCC(=O)NCc3ccccc3)cc2)cc(OC)c1 needs its pIC50 filled in; supply it.
# output < 4.00

# input Entry COc1cc(/C=C/c2ccc(O)cc2)cc(OC)c1 needs its pIC50 filled in; supply it.
# output < 4.00

# input Entry COc1cc(/C=C/c2ccc(OCC(=O)NCCc3ccccc3)cc2)c(/C=C/[N+](=O)[O-])c(OC)c1 needs its pIC50 filled in; supply it.
# output < 4.00

# input Entry COc1cc(/C=C/c2ccc(OCC(=O)NCC3CCOCC3)cc2)c(/C=C/[N+](=O)[O-])c(OC)c1 needs its pIC50 filled in; supply it.
# output < 4.00

# input Entry COCCCOc1ccc(/C=C/c2cc(OC)cc(OC)c2)cc1 needs its pIC50 filled in; supply it.
# output < 4.00

# input Entry COc1cc(/C=C/c2ccc(OCC(=O)NCc3ccc(Br)cc3)cc2)c(/C=C/[N+](=O)[O-])c(OC)c1 needs its pIC50 filled in; supply it.
# output < 4.00

----------
system: L02; test: Cytotoxicity against human L-02 cells incubated for 24 hrs by MTT assay; type: cell-based; settings: L02, 24 h
pIC50: −log10 of the molar value.
Provide the recorded pIC50 for the entries that follow.

# input Entry C=C1C(=O)[C@]23[C@H](O)[C@H]1CC[C@H]2[C@@]12CO[C@]3(O)[C@@H](O)[C@@H]1C(C)(C)CC[C@@H]2O [ORIDONIN] needs its pIC50 filled in; supply it.
# output 4.42

# input Entry COc1cc(/C=C/c2ccc(O)cc2)c(/C=C/[N+](=O)[O-])c(OC)c1 needs its pIC50 filled in; supply it.
# output < 4.00

# input Entry COc1cc(/C=C/c2ccc(NC(C)=O)cc2)c(/C=C/[N+](=O)[O-])c(OC)c1 needs its pIC50 filled in; supply it.
# output < 4.00

# input Entry COc1cc(/C=C/c2ccc(OCC(=O)NC3CCCCC3)cc2)c(/C=C/[N+](=O)[O-])c(OC)c1 needs its pIC50 filled in; supply it.
# output < 4.00

----------
assay: Cmax in mouse at 2 mg/kg, iv measured after 0.08 to 24 hrs by LC-MS/MS analysis; assay type: ADME, organism-based; set-up: route intravenous, time 0.08-24 hrs, dose 2 mg/kg; conditions: in vivo
value_kind: Cmax (ng/mL)
// note: answer is a bare numeric in ng/mL

# input Entry COc1cc(/C=C/c2ccc(NC(=O)C3CC3)cc2)c(/C=C/[N+](=O)[O-])c(OC)c1 needs its Cmax filled in; supply it.
# output 355

----------
test: Half life in mouse at 2 mg/kg, iv measured after 0.08 to 24 hrs by LC-MS/MS analysis; assay type: ADME, organism-based; settings: in vivo, time 0.08-24 hrs
value_kind: half-life (min)
// note: answer is a bare numeric in min

# input Entry COc1cc(/C=C/c2ccc(NC(=O)C3CC3)cc2)c(/C=C/[N+](=O)[O-])c(OC)c1 needs its half-life filled in; supply it.
# output 57.6

----------
tested on: L02; test: Cytotoxicity against human L-02 cells incubated for 24 hrs by MTT assay; type: cell-based; details: L02, 24 h
Provide the recorded IC50 for the entries that follow.

# input Consider the molecule COCCCOc1ccc(/C=C/c2cc(OC)cc(OC)c2/C=C/[N+](=O)[O-])cc1 tested on L02; state its IC50.
# output > 100 µM

# input Consider the molecule COc1cc(/C=C/c2ccc(NC(=O)CCl)cc2)c(/C=C/[N+](=O)[O-])c(OC)c1 tested on L02; state its IC50.
# output 42.6 µM

# input Consider the molecule COc1cc(/C=C/c2ccc(OCC(=O)Nc3ccc(Br)cc3)cc2)c(/C=C/[N+](=O)[O-])c(OC)c1 tested on L02; state its IC50.
# output > 100 µM

# input Consider the molecule COc1cc(/C=C/c2ccc(OCc3ccc(C(F)(F)F)cc3)cc2)cc(OC)c1 tested on L02; state its IC50.
# output > 100 µM

# input Consider the molecule COc1cc(/C=C/c2ccc(OCc3ccc(C(F)(F)F)cc3)cc2)c(-c2cnn[nH]2)c(OC)c1 tested on L02; state its IC50.
# output > 100 µM

# input Consider the molecule C=CCCCOc1ccc(/C=C/c2cc(OC)cc(OC)c2)cc1 tested on L02; state its IC50.
# output > 100 µM

# input Consider the molecule COCCOc1ccc(/C=C/c2cc(OC)cc(OC)c2-c2cnn[nH]2)cc1 tested on L02; state its IC50.
# output 94.5 µM

----------
target: NACHT, LRR and PYD domains-containing protein 3 (Mus musculus); assay: Inhibition of NLRP3 inflammasome activation in LPS-stimulated mouse J774A.1 cells assessed as inhibition of cell pyrolysis at 20 uM incubated for 1 hr followed by ATP addition and measured after 30 mins by Hoechst 33342/propidium iodide staining based high content screening method relative to control; settings: J774.A1, time 1.5 hrs
value_kind: inhibition (%)
// note: answer is a bare numeric in %

# input Consider the compound COCCOc1ccc(/C=C/c2cc(OC)cc(OC)c2/C=C/[N+](=O)[O-])cc1 tested on NACHT, LRR and PYD domains-containing protein 3 (Mus musculus); state its inhibition.
# output 40.2

# input Consider the compound COc1cc(/C=C/c2ccc(OCC(=O)NCc3ccc(Br)cc3)cc2)c(/C=C/[N+](=O)[O-])c(OC)c1 tested on NACHT, LRR and PYD domains-containing protein 3 (Mus musculus); state its inhibition.
# output 34.9

# input Consider the compound COc1cc(/C=C/c2ccc(O)cc2)cc(OC)c1 tested on NACHT, LRR and PYD domains-containing protein 3 (Mus musculus); state its inhibition.
# output 21.2

# input Consider the compound COc1cc(/C=C/c2ccc(OCC(=O)NCc3ccccc3)cc2)cc(OC)c1 tested on NACHT, LRR and PYD domains-containing protein 3 (Mus musculus); state its inhibition.
# output 15.4
